All values here come from patent US8343983B2.

- Tested on: cancer cells
- Experiment Description: MTS assay: inhibition of cell growth (formazan absorbance at 492 nm after 72 hours with test compound)
- Type: cell-based
- Condition Details: Homo sapiens, PC-3 cells, inhibition class, read-out: PC-3, MTS 72 hours at 10 uM
Measurement Type: inhibition at 10 µM

Item under review: COC[C@H](C)Nc1nc2c3c(n[nH]c3n1)CCN2Cc1ccccc1 [Compound 18] . Reported inhibition at 10 µM?
< 50%

# input compound: Fc1ccc(CCNc2nc3c4c(n[nH]c4n2)CCN3Cc2ccccc2)cc1 [Compound 46] ; wanted: its inhibition at 10 µM
< 50%

Fill in: inhibition at 10 µM of O=C(NCc1ccc(Cl)cc1)C1CN(Cc2ccccc2)c2nc(NCc3ccccc3)nc3[nH]nc1c23 (centres unmarked) [Compound 238] is ___
> 79%

What value of inhibition at 10 µM has been reported for the following compound? c1ccc(N2CCc3n[nH]c4nc(NCCN5CCOCC5)nc2c34)cc1 [Compound 215]
< 50%

For each entry beneath this line, provide reported inhibition at 10 µM.
1. c1ccc(CN2CCc3n[nH]c4nc(N5CCN(c6ccccc6)CC5)nc2c34)cc1 [Compound 44]
2. FC(F)(F)c1ccnc(N2CCN(c3nc4c5c(n[nH]c5n3)CCN4Cc3ccccc3)CC2)n1 [Compound 4]
3. CSc1nc2c3c(nn(Cc4ccccc4)c3n1)CCN2Cc1ccccc1 [Compound 133]

1: < 50%; 2: > 79%; 3: > 79%

Recorded inhibition at 10 µM of COc1ccc(CNc2nc3c4c(n[nH]c4n2)CCN3Cc2ccccc2)cc1OC [Compound 47] , please.
< 50%

* * *

- Test system: cancer cells
- Experiment Description: MTS assay: inhibition of cell growth (formazan absorbance at 492 nm after 72 hours with test compound)
- Format: cell-based
- Condition Details: Homo sapiens, PC-3 cells, inhibition class, read-out: PC-3, MTS 72 hours at 10 uM
Measurement Type: inhibition at 10 µM

Any idea what inhibition at 10 µM was measured for c1ccc(CN2CCc3n[nH]c4nc(NCCN5CCOCC5)nc2c34)cc1 [Compound 57] ?
> 79%

Dear colleague, I am looking for the recorded inhibition at 10 µM of the following molecule: Clc1cccc(CCNc2nc3c4c(n[nH]c4n2)CCN3Cc2ccccc2)c1 [Compound 12]
< 50%

# input molecule: Cc1cccc(CCNc2nc3c4c(n[nH]c4n2)CCN3Cc2ccccc2)c1 [Compound 77] ; wanted: its inhibition at 10 µM
< 50%

Requested field: inhibition at 10 µM. Item: c1ccc(CN2CCc3n[nH]c4nc(NCC5CCCCCC5)nc2c34)cc1 [Compound 67]
< 50%

What value of inhibition at 10 µM has been reported for the following molecule? COc1ccc(CN2CCc3n[nH]c4nc(NC5CCCCC5)nc2c34)cc1 [Compound 107]
< 50%

Look up inhibition at 10 µM for this molecule: COc1ccc(CN2CCc3n[nH]c4nc(NCCc5c[nH]c6ccc(Cl)cc56)nc2c34)cc1 [Compound 115]
> 79%

More entries:
Form field: reported inhibition at 10 µM of C1CCC(Nc2nc3c4c(n[nH]c4n2)CCN3)CC1 [Compound 123]
< 50%

* * *

- System: cancer cells
- Experiment Description: MTS assay: inhibition of cell growth (formazan absorbance at 492 nm after 72 hours with test compound)
- Type: cell-based
- Condition Details: Homo sapiens, PC-3 cells, inhibition class, read-out: PC-3, MTS 72 hours at 10 uM
- Procedure: Cells were maintained at 37° C., 5% CO2 in DMEM media supplemented with 1% fetal bovine serum, penicillin/streptomycin and fungizone (Invitrogen). Cells were seeded into 96-well tissue culture plates at 3000 per well and cultured at 37° C. for 18 hours. Test compounds were dissolved and diluted to 300× in DMSO then diluted 1:40 in DMEM. […] The measurement of the absorbance of the formazan was assessed using an ENVISION™ (Perkin Elmer) microplate reader at 492 nm. […]
Measurement Type: inhibition at 10 µM

Solved cases below.
Form: Entry = CN1CCN(c2nc3c4c(n[nH]c4n2)C(C(=O)NCc2ccccc2)CN3Cc2ccccc2)CC1 (stereo not drawn) | System = cancer cells | inhibition at 10 µM = ____
< 50%

Give the reported inhibition at 10 µM for COc1ccc(CN2CCCc3n[nH]c4nc(NCc5ccccc5Cl)nc2c34)cc1 (system: cancer cells).
> 79%

Shift focus to the following entry.
Give recorded inhibition at 10 µM with cancer cells for the following molecule: COc1ccc(CN2CCc3n[nH]c4nc(Nc5ccc(N6CCN(C(=O)OCc7ccccc7)CC6)cc5)nc2c34)cc1
50 to 79%
